Exercise: state measured koff for each of the binders provided.
molecular target: T1, human-CD40-monomer protein (human, UniProt P25942 21-193, limits assumed); assay: SPR, Ab captured on protein A, 1 uM hCD40 monomer, single concentration, apparent value
T1 construct: Soluble monomer generated in house, used as SPR analyte; also called hCD40; hCD40-monomer
T1 sequence (P25942 21-193 limits assumed): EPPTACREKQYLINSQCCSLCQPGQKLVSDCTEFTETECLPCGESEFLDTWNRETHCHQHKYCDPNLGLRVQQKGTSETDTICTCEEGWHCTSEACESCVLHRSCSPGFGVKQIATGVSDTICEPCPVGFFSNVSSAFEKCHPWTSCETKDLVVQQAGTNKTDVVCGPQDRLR
Report the figure along with its unit, number first.

Form field: reported koff of ADX_Y1264.ZZ0-1 (antibody, V domains shown, Mouse anti-human-CD40 antibody) VH: EVQLQQSGTVLARPGASVKMSCRASGYSFSSYWMHWVKQRPGQGLEWIGSINPGNSDAFYNQQFKGKAKLTAVTSASTAYMELSSLTNEDSAVYYCTRWGLPPFAYWGQGTLVTVSA VL: DIVMTQSHKFMSTSVGDRVSITCKASQDVSTAVAWYQQKPGQSPKLLIYSASYRYTGVPDRFTGSGSGTDFTFTISSVQAEDLAVYYCHQHYSTPWTFGGGTKLEIK
0.00023 s⁻¹

Form field: reported koff of ADX_Y1258.ZZ0-1 (antibody, V domains shown, Mouse anti-human-CD40 antibody) VH: QVQLQQSGAELAKPGSSVKMSCKASGYAFTSYWMHWIKQRPGQGLEWIGFINPTTGYSEYNQKFKDKATLTADKSSSTAYMQLNSLTSEDSAVYFCARWGLPPFAYWGQGTLVTVSA VL: DIVMTQSHKFMSTSVGDRVSITCKASQDVSTAVAWYQQKPGQSPKLLIYSASYRYTGVPDRFTGSGSGTDFTFTISSVQAEDLAVYYCQQHYSTPWTFGGGTKLEIK
0.00013 s⁻¹

Form field: reported koff of ADX_Y1238.ZZ0-1 (antibody, V domains shown, Mouse anti-human-CD40 antibody) VH: QVQLQQSGAELVRPGTSVKVSCKASGYAFTNYLIEWVKQRPGQGLEWIGVINPGSGGTNYNEKFKGKATLTADKSSSTAYMQLSSLTSDDSAVYFCARSQLGRRFDYWGQGTTLTVSS VL: DIVMTQSHKFMSTSVGDRVSITCKASQDVRTGVAWYQQKPGQSPKLLIYSASYRNTGVPDRFTGSRSGTDFTFTISSVQAEDLAVYYCQQHYSPPYTFGGGTKLEIK
0.00012 s⁻¹
